- tested.target: Muscarinic acetylcholine receptors; M1 & M2 (Homo sapiens) (UniProt P11229+P08172)
- measurement.notes: Ratio of binding affinity against Muscarinic acetylcholine receptor M1 to that of Muscarinic acetylcholine receptor M2
- Format: protein assay
For each record, write down the corresponding Ratio.
Numbers only.

O=S(=O)(c1ccc(OC2CCN(C3CCN(S(=O)(=O)c4cccc5ccccc45)CC3)CC2)cc1)c1ccc2c(c1)OCO2 | 2
CC(C)OC(=O)N1CCC(N2CCC(Oc3ccc(S(=O)(=O)c4ccc5c(c4)OCO5)cc3)CC2)CC1 | 59
CCOC(=O)N1CCC(N2CCC(Oc3ccc(S(=O)(=O)c4ccc5c(c4)OCO5)cc3)CC2)CC1 | 4
O=C(c1ccnc2ccccc12)N1CCC(N2CCC(Oc3ccc(S(=O)(=O)c4ccc5c(c4)OCO5)cc3)CC2)CC1 | 140

Parameters: items (list). Returns: Ratio for each item.
1. O=C(c1cccc2ccccc12)N1CCC(N2CCC(Oc3ccc(S(=O)(=O)c4ccc5c(c4)OCO5)cc3)CC2)CC1
2. O=C(COc1ccccc1)N1CCC(N2CCC(Oc3ccc(S(=O)(=O)c4ccc5c(c4)OCO5)cc3)CC2)CC1
3. O=C(c1cccc2cccnc12)N1CCC(N2CCC(Oc3ccc(S(=O)(=O)c4ccc5c(c4)OCO5)cc3)CC2)CC1
4. CCCS(=O)(=O)N1CCC(N2CCC(Oc3ccc(S(=O)(=O)c4ccc5c(c4)OCO5)cc3)CC2)CC1
5. Cc1ccsc1C(=O)N1CCC(N2CCC(Oc3ccc(S(=O)(=O)c4ccc5c(c4)OCO5)cc3)CC2)CC1

A)
357
8
9
58
234

Q) For the record `O=C(c1ccccc1)N1CCC(N2CCC(Oc3ccc(S(=O)(=O)c4ccc5c(c4)OCO5)cc3)CC2)CC1` , what value of Ratio is listed for Muscarinic acetylcholine receptors; M1 & M2 (Homo sapiens) (UniProt P11229+P08172)?
A) 18

====

For each record, write down the corresponding Ratio.
- tested.target: Muscarinic acetylcholine receptors; M2 & M3 (Homo sapiens) (UniProt P20309+P08172)
- measurement.notes: Ratio of binding affinity against Muscarinic acetylcholine receptor M3 to that of Muscarinic acetylcholine receptor M2
- Format: protein assay
Numbers only.

CC(C)S(=O)(=O)N1CCC(N2CCC(Oc3ccc(S(=O)(=O)c4ccc5c(c4)OCO5)cc3)CC2)CC1 | 2
O=C(c1ccccc1)N1CCC(N2CCC(Oc3ccc(S(=O)(=O)c4ccc5c(c4)OCO5)cc3)CC2)CC1 | 6
CCS(=O)(=O)N1CCC(N2CCC(Oc3ccc(S(=O)(=O)c4ccc5c(c4)OCO5)cc3)CC2)CC1 | 122
O=C(c1cccc2ccccc12)N1CCC(N2CCC(Oc3ccc(S(=O)(=O)c4ccc5c(c4)OCO5)cc3)CC2)CC1 | 216
O=C(COc1ccccc1)N1CCC(N2CCC(Oc3ccc(S(=O)(=O)c4ccc5c(c4)OCO5)cc3)CC2)CC1 | 5

Parameters: items (list). Returns: Ratio for each item.
1. CCCS(=O)(=O)N1CCC(N2CCC(Oc3ccc(S(=O)(=O)c4ccc5c(c4)OCO5)cc3)CC2)CC1
2. O=C(c1cccc2ncccc12)N1CCC(N2CCC(Oc3ccc(S(=O)(=O)c4ccc5c(c4)OCO5)cc3)CC2)CC1
3. O=S(=O)(c1ccc(OC2CCN(C3CCN(S(=O)(=O)Cc4ccccc4)CC3)CC2)cc1)c1ccc2c(c1)OCO2
4. CCCCS(=O)(=O)N1CCC(N2CCC(Oc3ccc(S(=O)(=O)c4ccc5c(c4)OCO5)cc3)CC2)CC1
5. CCOCC(=O)N1CCC(N2CCC(Oc3ccc(S(=O)(=O)c4ccc5c(c4)OCO5)cc3)CC2)CC1
6. O=C(Oc1ccccc1)N1CCC(N2CCC(Oc3ccc(S(=O)(=O)c4ccc5c(c4)OCO5)cc3)CC2)CC1
7. Cc1ccsc1C(=O)N1CCC(N2CCC(Oc3ccc(S(=O)(=O)c4ccc5c(c4)OCO5)cc3)CC2)CC1
8. O=S(=O)(c1ccc(OC2CCN(C3CCN(S(=O)(=O)c4cccc5ccccc45)CC3)CC2)cc1)c1ccc2c(c1)OCO2

A)
1. 46
2. 124
3. 12
4. 50
5. 5
6. 61
7. 109
8. 8

Parameters: items (list). Returns: Ratio for each item.
1. Cc1cccc(C(=O)N2CCC(N3CCC(Oc4ccc(S(=O)(=O)c5ccc6c(c5)OCO6)cc4)CC3)CC2)c1C
2. CC(C)OC(=O)N1CCC(N2CCC(Oc3ccc(S(=O)(=O)c4ccc5c(c4)OCO5)cc3)CC2)CC1
3. O=C(c1cccc2cccnc12)N1CCC(N2CCC(Oc3ccc(S(=O)(=O)c4ccc5c(c4)OCO5)cc3)CC2)CC1

A)
1. 132
2. 19
3. 10

Q) Find the recorded Ratio belonging to `O=C(c1ccnc2ccccc12)N1CCC(N2CCC(Oc3ccc(S(=O)(=O)c4ccc5c(c4)OCO5)cc3)CC2)CC1` and report it.
A) 117

# credit: ChEMBL document CHEMBL1134751
